Molecular target: VHL complex (VHL, Elongin B, Elongin C, Cul2, Rbx1) (Homo sapiens (Human), UniProt P40337)
Sequence (P40337 whole entry, looked up): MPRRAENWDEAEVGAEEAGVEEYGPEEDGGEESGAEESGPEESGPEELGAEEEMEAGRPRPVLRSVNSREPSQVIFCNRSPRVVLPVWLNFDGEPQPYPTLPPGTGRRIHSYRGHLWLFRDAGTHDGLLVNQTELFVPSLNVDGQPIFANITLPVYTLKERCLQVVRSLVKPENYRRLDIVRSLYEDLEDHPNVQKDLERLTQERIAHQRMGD
Sequence (Q15370 whole entry partner, looked up): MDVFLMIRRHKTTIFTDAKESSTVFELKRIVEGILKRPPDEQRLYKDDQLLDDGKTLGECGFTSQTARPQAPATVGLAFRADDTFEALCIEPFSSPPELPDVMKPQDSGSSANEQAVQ
Sequence (Q15369 whole entry partner, looked up): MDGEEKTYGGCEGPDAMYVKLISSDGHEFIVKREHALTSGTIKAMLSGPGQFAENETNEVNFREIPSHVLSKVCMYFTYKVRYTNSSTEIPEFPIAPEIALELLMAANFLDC
Sequence (Q13617 whole entry partner, looked up): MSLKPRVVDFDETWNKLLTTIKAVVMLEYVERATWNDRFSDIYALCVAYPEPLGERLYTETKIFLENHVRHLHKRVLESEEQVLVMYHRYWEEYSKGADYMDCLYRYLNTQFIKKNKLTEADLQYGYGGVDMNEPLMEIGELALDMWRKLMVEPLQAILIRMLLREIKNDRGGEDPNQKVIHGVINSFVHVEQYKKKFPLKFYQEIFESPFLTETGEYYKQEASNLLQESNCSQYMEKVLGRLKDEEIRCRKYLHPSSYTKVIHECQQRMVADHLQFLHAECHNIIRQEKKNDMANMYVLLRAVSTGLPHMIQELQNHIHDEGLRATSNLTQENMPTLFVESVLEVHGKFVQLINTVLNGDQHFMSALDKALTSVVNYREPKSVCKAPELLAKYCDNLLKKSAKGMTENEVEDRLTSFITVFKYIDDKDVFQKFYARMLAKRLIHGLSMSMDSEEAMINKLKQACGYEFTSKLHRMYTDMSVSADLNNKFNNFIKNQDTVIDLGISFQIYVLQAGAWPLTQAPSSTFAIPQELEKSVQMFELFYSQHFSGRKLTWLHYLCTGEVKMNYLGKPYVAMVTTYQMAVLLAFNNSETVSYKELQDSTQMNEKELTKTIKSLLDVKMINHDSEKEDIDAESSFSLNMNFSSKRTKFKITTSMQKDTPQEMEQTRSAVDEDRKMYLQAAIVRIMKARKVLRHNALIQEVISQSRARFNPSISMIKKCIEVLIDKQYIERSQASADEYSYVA
Sequence (P62877 whole entry partner, looked up): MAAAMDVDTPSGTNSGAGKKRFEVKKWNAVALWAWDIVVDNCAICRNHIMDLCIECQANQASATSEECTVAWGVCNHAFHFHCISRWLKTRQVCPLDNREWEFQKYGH
Test: VHL SPR assay
Format: binding
Details: immobilized VHL complex; read-out: VHL SPR Kd
measuredEndpoint: Kd

compound	Kd
Cc1ncsc1-c1ccc(CNC(=O)[C@@H]2C[C@@H](O)CN2C(=O)[C@@H](NC(=O)CCOCCOCCOc2ccc(C(=O)Nc3ccc4oc(-c5ccc(=O)n(C)n5)nc4c3)nc2)C(C)(C)C)cc1 [Compound 22]	< 100 nM

Alright, here's another compound for you.
input: Record request: Kd value, item Cc1ncsc1-c1ccc(CNC(=O)[C@@H]2C[C@@H](O)CN2C(=O)[C@@H](NC(=O)COCCOCCOCCOCCOc2ccc(COc3ccc4oc(N5CCn6ccnc6C5)nc4c3)nc2)C(C)(C)C)cc1 [Compound 57]
output: 100 to 500 nM
